# measured_on: Mitogen-activated protein kinase 8 (Homo sapiens)
# Sequence (P45983 whole entry): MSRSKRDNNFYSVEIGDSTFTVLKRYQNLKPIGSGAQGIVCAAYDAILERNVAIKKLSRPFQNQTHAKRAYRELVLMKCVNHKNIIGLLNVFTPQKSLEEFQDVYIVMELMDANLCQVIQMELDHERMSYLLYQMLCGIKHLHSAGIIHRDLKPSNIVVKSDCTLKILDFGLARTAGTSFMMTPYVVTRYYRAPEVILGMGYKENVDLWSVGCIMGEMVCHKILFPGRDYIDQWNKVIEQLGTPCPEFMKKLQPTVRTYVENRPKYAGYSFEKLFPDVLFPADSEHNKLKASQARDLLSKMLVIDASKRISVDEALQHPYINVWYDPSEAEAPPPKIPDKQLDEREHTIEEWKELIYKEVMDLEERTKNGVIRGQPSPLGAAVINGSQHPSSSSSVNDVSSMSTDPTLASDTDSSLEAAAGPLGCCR
# assay_text: Inhibition of JNK1-mediated ATF2 phosphorylation
pIC50: −log10 of the molar value.
assay_metric: pIC50

Note to self: pIC50 recorded for CCOc1nc(NC(=O)OC)cc(N)c1C#N was < 5.00

# pIC50 (molecule: CCNC(=O)Nc1cc(N)c(C#N)c(OCC)n1 ) is < 5.00

// pIC50 lookup, molecule = CCCCC(=O)Nc1nc(OCC)c(C#N)c(N)c1Cl , result: < 5.00

----------
Measured EC50, listed per entry.
# measured_on: c-Jun N-terminal kinase, JNK (Homo sapiens, UniProt P45983+P53779+P45984)
# assay_text: Inhibition of cJun phosphorylation in HepG2 cell line
Answer format: numeric, nM implied, no suffix.

# annotated cases, reported EC50 shown
>  <structure_smiles>
CCOc1nc(NC(=O)Cc2cc(OC)c(NC(C)=O)cc2OC)cc(N)c1C#N

>  <EC50 / nM>
280

$$$$
>  <structure_smiles>
COc1ccc(OC)c(CC(=O)Nc2cc(N)c(C#N)c(OCCO)n2)c1

>  <EC50 / nM>
1600

$$$$
>  <structure_smiles>
COCCOc1nc(NC(=O)Cc2cc(OC)ccc2OC)cc(N)c1C#N

>  <EC50 / nM>
1400

$$$$
>  <structure_smiles>
CCOc1nc(NC(=O)CN2CCC(C(=O)NC(C)C)CC2)cc(N)c1C#N

>  <EC50 / nM>
3900

$$$$

Noted EC50 for CCOc1nc(NC(=O)Cc2cccc(OC)c2)cc(N)c1C#N , tested on c-Jun N-terminal kinase, JNK (Homo sapiens, UniProt P45983+P53779+P45984): 2500
